# method_description: Plasma stability
# Assay type: in vitro ADME
# condition_context: 30 min
# Experimental: In order to analyze the drug metabolism of PMSA compound, ADME evaluation was requested to the Daegu-Gyeongbuk Advanced Medical industry Promotion Foundation (DGMIF). Metabolic stability of drugs using liver microsomes (microsomal stability), drug metabolism inhibitory ability by five CYP450 enzymes, plasma metabolism (plasma stability), plasma protein binding, and intestinal permeability of drugs (PAMPA, parallel artificial membrane permeability assay) were analyzed. […]
metric_name: Plasma S Human 30 min (% Remaining)

- COc1ccc(Cl)cc1N(CC(=O)Nc1ccccc1Sc1ccccc1)S(C)(=O)=O [#25-D12]: 98.3
- CC(=O)c1cccc(N(CC(=O)Nc2ccccc2Oc2ccccc2)S(C)(=O)=O)c1 [#25-O]: 94.3
- CC(=O)c1cccc(N(CC(=O)Nc2ccccc2Sc2ccccc2)S(C)(=O)=O)c1 [#25]: 87.1

* * *

# method_description: Microsomal stability (H)
# Format: in vitro ADME, human
# condition_context: H of H/M; criterion >60%
metric_name: Microsomal stability (>60%) H

* COc1ccc(Cl)cc1N(CC(=O)Nc1ccccc1Sc1ccccc1)S(C)(=O)=O [#25-D12] | 13.9
* CC(=O)c1cccc(N(CC(=O)Nc2ccccc2Sc2ccccc2)S(C)(=O)=O)c1 [#25] | 8.7
* CC(=O)c1cccc(N(CC(=O)Nc2ccccc2Oc2ccccc2)S(C)(=O)=O)c1 [#25-O] | 12.5

[P] Cc1cc(C)cc(N([C@@H](C)C(=O)Nc2ccccc2Sc2ccccc2)S(C)(=O)=O)c1 [#25-D5]
[Q] CC(=O)c1cccc(N(CC(=O)Nc2ccccc2-c2ccccc2)S(C)(=O)=O)c1 [#25-C]
[R] CC(=O)c1cccc(N(CC(=O)Nc2ccccc2Nc2ccccc2)S(C)(=O)=O)c1 [#25-N]
Rank by Microsomal stability (>60%) H (largest to smallest). List labels; respect the requested ordering.
Q, P, R

* * *

# method_description: Plasma stability
# Type: in vitro ADME
# condition_context: 120 min
Overview of recorded Plasma S Human 120 min (% Remaining) for various compounds

Some solved entries appear below for comparison.
* CC(=O)c1cccc(N(CC(=O)Nc2ccccc2-c2ccccc2)S(C)(=O)=O)c1 [#25-C] | 100/100 % Remaining
* CC(=O)c1cccc(N(CC(=O)Nc2ccccc2Nc2ccccc2)S(C)(=O)=O)c1 [#25-N] | 100/100 % Remaining

Here is another compound to look at.
Please give the measured Plasma S Human 120 min (% Remaining) for this compound: Cc1cc(C)cc(N([C@@H](C)C(=O)Nc2ccccc2Sc2ccccc2)S(C)(=O)=O)c1 [#25-D5]
100/100 % Remaining

* * *

# method_description: Plasma stability
# Type: in vitro ADME
# condition_context: 30 min
metric_name: Plasma S Human 30 min (% Remaining)

* CC(=O)c1cccc(N(CC(=O)Nc2ccccc2-c2ccccc2)S(C)(=O)=O)c1 [#25-C] | 100/100 % Remaining
* Cc1cc(C)cc(N([C@@H](C)C(=O)Nc2ccccc2Sc2ccccc2)S(C)(=O)=O)c1 [#25-D5] | 100/100 % Remaining

Shifting focus to the compound that follows.
Fill in the blank: the reported Plasma S Human 30 min (% Remaining) of CC(=O)c1cccc(N(CC(=O)Nc2ccccc2Nc2ccccc2)S(C)(=O)=O)c1 [#25-N] is ____.
100/100 % Remaining
